The reported measurements were obtained from paper PMC9482650.

# test system: DLG4_2, P78352
# Sequence (P78352 155-259): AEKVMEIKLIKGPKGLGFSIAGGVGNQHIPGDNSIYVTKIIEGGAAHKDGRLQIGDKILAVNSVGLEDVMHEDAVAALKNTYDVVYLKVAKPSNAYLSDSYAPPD
# measurement notes: holdup assay
# Design: key: below the threshold = too weak to quantify, mostly under pKd 3.1 to 4
# recorded conditions: plain residues with an end cap or a label only (N-terminal biotin on a linker: ado-ado)
Reported pKd values for the following binders.
// response body must contain only the number

Worked examples, 8 binders total:
In [3]: df
Out[3]:
                         binder  observed_result
0   PRAEAEDSFL [PDGFRB, P09619]             3.48
1   RRISSLESEV [GRIN2C, Q14957]             5.33
2  SAKVRTVTSV [RASL11B, Q9BPW5]             5.08
3    FNSYSLTGYV [CLDN2, P57739]             3.56
4    SSALYGESDL [ACTN2, P35609]             3.61
5    LPHPHSTTRV [NLGN2, Q8NFZ4]             3.86
6   PDGQCTVTEV [RNF146, Q9NTX7]             5.07
7    DDPSTAETVL [ABCA7, Q8IZY2]              3.7

Q: Given the binder HLRARKSEWV [GJD4, Q96KN9] , what is its reported pKd?
A: 4.11
